Attribution: patent US20210332142A1

target: T1, rat Tie2ECD.flag (rat, UniProt A0ABK0L6J5 19-740); experiment: Biacore, hIgG captured, 25C
T1 construct: extracellular domain; also called rTie2.flag; not shown: C-terminal Flag tag
Quantity: pKd
Please treat pKd as minus the base-10 logarithm of the molar concentration.

Binder	Recorded Result
Tie2.34 (antibody, IgG1, V domains shown, hIgG1 in Biacore; also called Ab34) VH: EVQLVESGGGLVQPGGSLRLSCAASGFTFSDTYIHWVRQAPGKGLEWVAVIYPDNGATYYADSVKGTYYADSVKGRFTISADTSKNTAYLQMNSLRAEDTAVYYCAREFACARCVYGMDYWGQGTLVTVSS VL: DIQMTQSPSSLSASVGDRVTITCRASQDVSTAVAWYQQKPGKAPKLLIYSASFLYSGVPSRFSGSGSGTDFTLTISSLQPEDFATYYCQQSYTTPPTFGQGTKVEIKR	7.24

(Q) Reported pKd, binder Tie2.24 (antibody, IgG1, V domains shown, hIgG1 in later assays; also called Ab24) VH: EVQLVESGGGLVQPGGSLRLSCAASGFTFTSSGISWVRQAPGKGLEWVATINPYGGDTYYADSVKGRFTISADTSKNTAYLQMNSLRAEDTAVYYCARFYRFLSSGMDYWGQGTLVTVSS VL: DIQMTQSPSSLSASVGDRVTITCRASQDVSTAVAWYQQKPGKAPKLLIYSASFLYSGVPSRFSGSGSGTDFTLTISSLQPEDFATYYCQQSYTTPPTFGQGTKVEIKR : ____
(A) 5.55

(Q) Reported pKd, binder Tie2.12 (antibody, IgG1, V domains shown, hIgG1 in later assays; also called Ab12) VH: EVQLVESGGGLVQPGGSLRLSCAASGFTFSSYWIHWVRQAPGKGLEWVAAISPNDGSTYYADSVKGRFTISADTSKNTAYLQMNSLRAEDTAVYYCARSRYYGQRLVYYVMDYWGQGTLVTVSS VL: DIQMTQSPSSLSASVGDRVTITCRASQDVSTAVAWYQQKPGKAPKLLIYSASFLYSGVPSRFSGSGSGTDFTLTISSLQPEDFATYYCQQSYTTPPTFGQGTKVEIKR : ____
(A) 6.94

(Q) Reported pKd, binder Tie2.38 (antibody, IgG1, V domains shown, hIgG1 in later assays; also called Ab38) VH: EVQLVESGGGLVQPGGSLRLSCAASGFTFSNSAIHWVRQAPGKGLEWVASITPYNGYTYYADSVKGRFTISADTSKNTAYLQMNSLRAEDTAVYYCARRQSYSYVMDYWGQGTLVTVSS VL: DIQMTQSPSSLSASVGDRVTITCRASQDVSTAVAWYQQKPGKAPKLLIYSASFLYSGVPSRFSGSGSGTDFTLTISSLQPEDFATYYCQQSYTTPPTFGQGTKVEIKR : ____
(A) 5.66

(Q) Reported pKd, binder Tie2.1 (antibody, human IgG1, V domains shown, human IgG1 in all later assays; also called Ab1; Tie2.1.M100c) VH: EVQLVESGGGLVQPGGSLRLSCAASGFTFSNTDISWVRQAPGKGLEWVGRISPSDGNTYYADSVKGRFTISADTSKNTAYLQMNSLRAEDTAVYYCARRTRWASWAMDYWGQGTLVTVSS VL: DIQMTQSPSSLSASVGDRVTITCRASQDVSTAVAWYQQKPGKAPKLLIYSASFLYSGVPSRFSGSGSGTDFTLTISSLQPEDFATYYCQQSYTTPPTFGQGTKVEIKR : ____
(A) 5.80
